Biological target: human Siglec-2/CD22 protein (Homo sapiens)
Sequence (P20273 20-847): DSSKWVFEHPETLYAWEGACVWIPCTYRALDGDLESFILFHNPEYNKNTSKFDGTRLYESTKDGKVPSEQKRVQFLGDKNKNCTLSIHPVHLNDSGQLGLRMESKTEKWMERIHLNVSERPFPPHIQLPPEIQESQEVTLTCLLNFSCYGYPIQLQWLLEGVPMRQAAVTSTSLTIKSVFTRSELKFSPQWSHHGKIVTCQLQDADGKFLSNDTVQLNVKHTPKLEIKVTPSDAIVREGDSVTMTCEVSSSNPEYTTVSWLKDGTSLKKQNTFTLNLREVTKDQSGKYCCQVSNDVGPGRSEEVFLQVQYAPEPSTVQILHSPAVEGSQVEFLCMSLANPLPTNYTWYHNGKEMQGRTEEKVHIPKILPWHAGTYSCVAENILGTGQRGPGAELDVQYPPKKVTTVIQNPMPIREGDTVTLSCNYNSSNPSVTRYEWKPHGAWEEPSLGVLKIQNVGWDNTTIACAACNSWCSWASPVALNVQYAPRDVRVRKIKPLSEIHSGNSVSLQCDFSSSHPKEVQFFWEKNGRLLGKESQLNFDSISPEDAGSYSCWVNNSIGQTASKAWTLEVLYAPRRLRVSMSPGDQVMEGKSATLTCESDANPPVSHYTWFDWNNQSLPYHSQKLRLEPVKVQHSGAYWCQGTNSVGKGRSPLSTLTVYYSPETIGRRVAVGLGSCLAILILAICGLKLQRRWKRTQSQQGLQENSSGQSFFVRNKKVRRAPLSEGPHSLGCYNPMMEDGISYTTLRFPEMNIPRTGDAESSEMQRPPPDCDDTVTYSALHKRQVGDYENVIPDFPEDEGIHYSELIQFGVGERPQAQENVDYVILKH
Test: SPR binding affinity to human CD22
Conditions: steady-state analysis
Experimental: Prior to immobilization, CD22 proteins were treated with SialoExo (Genovis, Cat #G1-SM1-020) for 4 hours at 37° C. to remove native sialic acid residues. […] Binding experiments of Siglec-ligand conjugated proteins or Siglec ligand compounds were performed on the surfaces prepared above in 10 mM HEPES, 150 mM NaCl, 0.05% Tween-20, pH 7.5, 1% DMSO as the running buffer. […] Data was analyzed using steady-state analysis in Biacore Insight Evaluation Software, version 3.0 for Siglec ligand compounds.
Measured endpoint: Kd

Check out these entries, answers already filled in.
C#CCOc1ccc(CO[C@]2(C(=O)O)C[C@H](O)[C@@H](NC(=O)CO)[C@H]([C@H](O)[C@H](O)CNC(=O)Cc3cccc(O)c3)O2)cc1    < 1000 nM
C#CCOCCCCCCS[C@]1(C(=O)O)C[C@H](O)[C@@H](NC(=O)CO)[C@H]([C@H](O)[C@H](O)CNC(=O)c2cccc(Oc3ccccc3)c2)O1    < 1000 nM

What the record says about C#CCOCCCCCCO[C@]1(C(=O)O)C[C@H](O)[C@@H](NC(=O)C(F)(F)F)[C@H]([C@H](O)[C@H](O)CNC(=O)Cc2ccc(Cl)cc2)O1 : Kd is < 1000 nM

The value of Kd measured for the compound CC(=O)NCCOCCOCCOCCOCCn1cc(CCCCCCO[C@]2(C(=O)O)C[C@H](O)[C@@H](NC(=O)CO)[C@H]([C@H](O)[C@H](O)CNC(=O)Cc3ccc(C(F)F)cc3)O2)nn1 turned out to be < 1000 nM

Looking up C#CCOCCCCCCO[C@]1(C(=O)O)C[C@H](O)[C@@H](NCC(=O)NC)[C@H]([C@H](O)[C@H](O)CNC(=O)Cc2ccc(Cl)cc2)O1 , I see its Kd listed as 1000 to 10000 nM

Recorded result, C#CCCOc1ccc(CO[C@]2(C(=O)O)C[C@H](O)[C@@H](NC(=O)CO)[C@H]([C@H](O)[C@H](O)CNC(=O)Cc3ccc4cn[nH]c4c3)O2)cc1 , Kd: 1000 to 10000 nM

// Kd lookup, compound = C#CCOP(=O)(O)OCCCCCO[C@]1(C(=O)O)C[C@H](O)[C@@H](NC(=O)CO)[C@H]([C@H](O)[C@H](O)CNC(=O)Cc2ccc(Cl)cc2)O1 , result: < 1000 nM

Sure, the documented Kd for CC(=O)NCCOCCOCCOCCOCc1cn(CCOCCOCCO[C@]2(C(=O)O)C[C@H](O)[C@@H](NC(=O)CO)[C@H]([C@H](O)[C@H](O)CNC(=O)Cc3ccc(-c4ccccc4)cc3)O2)nn1 is 1000 to 10000 nM

###

biological target: cynomolgus Siglec-2/CD22 (Macaca fascicularis); assay: biochemical; conditions: SPR, steady-state analysis; read-out: Affinity cyno CD22
Sequence (A0A2K5WCZ6 entry or part of it): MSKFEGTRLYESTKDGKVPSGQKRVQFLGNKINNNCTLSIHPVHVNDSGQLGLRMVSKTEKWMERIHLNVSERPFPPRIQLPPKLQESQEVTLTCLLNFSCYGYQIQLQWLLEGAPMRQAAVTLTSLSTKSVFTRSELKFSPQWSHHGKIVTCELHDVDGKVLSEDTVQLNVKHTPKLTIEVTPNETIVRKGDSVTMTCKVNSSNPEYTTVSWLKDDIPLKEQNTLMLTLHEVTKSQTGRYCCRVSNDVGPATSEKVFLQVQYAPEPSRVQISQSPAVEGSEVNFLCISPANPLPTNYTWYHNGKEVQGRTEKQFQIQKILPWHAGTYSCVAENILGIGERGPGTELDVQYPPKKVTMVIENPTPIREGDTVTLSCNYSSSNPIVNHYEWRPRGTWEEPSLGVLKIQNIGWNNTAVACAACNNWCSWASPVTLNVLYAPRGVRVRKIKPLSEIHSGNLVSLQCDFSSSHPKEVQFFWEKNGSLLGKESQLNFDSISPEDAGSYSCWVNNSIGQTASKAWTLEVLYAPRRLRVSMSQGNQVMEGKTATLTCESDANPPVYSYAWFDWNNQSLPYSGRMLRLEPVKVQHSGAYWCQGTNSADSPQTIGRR
pKd: −log10 of the molar value.
In this section, each of the molecules is paired with its reported pKd.

Reference set, count: 2
O=C(Cc1ccc(Cl)cc1)NC[C@@H](O)[C@@H](O)[C@@H]1O[C@@](SCc2cccc(C(=O)O)c2)(C(=O)O)C[C@H](O)[C@H]1NC(=O)CO    > 6.00
C#CCCC(=O)NCCCCCCO[C@]1(C(=O)O)C[C@H](O)[C@@H](NC(=O)CO)[C@H]([C@H](O)[C@H](O)CNC(=O)Cc2ccc(Cl)cc2)O1    > 6.00

Moving on to another molecule below.
C#CCOCCCCCCO[C@]1(C(=O)O)C[C@H](O)[C@@H](NCC(N)=O)[C@H]([C@H](O)[C@H](O)CNC(=O)Cc2ccc(Cl)cc2)O1 tested on cynomolgus Siglec-2/CD22 (Macaca fascicularis) gave pKd: 5.00 to 6.00
